EXPERIMENTAL SYSTEM: C-CBL (46-435) (Homo sapiens)
Construct: N-terminal biotinylated WT CBL-B (36-427) and C-CBL (46-435) were captured on a streptavidin (SA) coated sensor chip
Sequence (P22681 46-435): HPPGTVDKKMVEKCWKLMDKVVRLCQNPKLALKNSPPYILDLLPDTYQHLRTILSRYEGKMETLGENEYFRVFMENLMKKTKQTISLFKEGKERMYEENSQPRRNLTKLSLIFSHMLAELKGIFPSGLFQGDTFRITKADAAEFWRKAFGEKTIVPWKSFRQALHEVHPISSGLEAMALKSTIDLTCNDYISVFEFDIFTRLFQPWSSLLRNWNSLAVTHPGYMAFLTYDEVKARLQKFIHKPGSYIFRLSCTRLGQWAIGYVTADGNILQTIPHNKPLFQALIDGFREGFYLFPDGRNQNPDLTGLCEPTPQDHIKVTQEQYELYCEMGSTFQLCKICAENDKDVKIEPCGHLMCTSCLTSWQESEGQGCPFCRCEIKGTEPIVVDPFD
TEST NAME: Surface Plasmon Resonance (SPR) assay, binding affinity and kinetics, C-CBL
COND: SPR at 10° C., biotinylated C-CBL (46-435) on streptavidin chip; geometric mean; read-out: C-CBL SPR Kd (nM) GMean
Method: Surface Plasmon Resonance (SPR) Assay The purpose of the SPR assay is to evaluate the binding affinity and kinetics of the compound of disclosure binding to CBL-B and C-CBL. The binding affinity and kinetics of compound binding to CBL-B and C-CBL were measured by Surface Plasmon Resonance (SPR) using either Biacore S200, 8K or 8K+ (Cytiva, Marlborough, MA) instruments. […] Compound binding kinetics were measured in either multi-cycle or single-cycle kinetic format. […]
MEASUREMENT LABEL: Kd
Kindly format the answer as number then unit.

Previously resolved entries follow.
COMPOUND: CC(NC1CC2(COC2)C1)c1nc(C(F)(F)F)cc2c(-c3cccc([C@H](c4nncn4C)C4CCC4)c3)n[nH]c12 (single isomer, unassigned) [Example C97]
Kd: 242 nM
//
COMPOUND: CC(c1nc(C(F)(F)F)cc2c(-c3cccc(C4(Cc5nncn5C)COC4)c3)n[nH]c12)N1CCOCC1 (single isomer, unassigned) [Example C24]
Kd: 146 nM
//
COMPOUND: COc1nc(C(F)(F)F)cc2c(-c3cccc(C4(Cc5nncn5C)COC4)c3)n[nH]c12 [Example J10]
Kd: 178 nM
//
COMPOUND: Cn1cnnc1CC1(c2cccc(-c3n[nH]c4cnc(C(F)(F)F)cc34)c2)COC1 [Example B1]
Kd: 450 nM
//
COMPOUND: CC(C)NC(C)c1nc(C(F)(F)F)cc2c(-c3cccc(C4(Cc5nncn5C)COC4)c3)n[nH]c12 (single isomer, unassigned) [Example C80]
Kd: 68.5 nM

The record that follows has no Kd shown yet.
(Q) Look up and state reported Kd for C[C@@H](c1nc(C(F)(F)F)cc2c(-c3cccc(C4(Cc5nncn5C)COC4)c3)n[nH]c12)N1CCNC(=O)C1 (single isomer, unassigned) [Example D51]
(A) 15 nM

* * *

EXPERIMENTAL SYSTEM: WT CBL-B (36-427) (Homo sapiens, UniProt Q13191)
Construct: N-terminal biotinylated WT CBL-B (36-427) and C-CBL (46-435) were captured on a streptavidin (SA) coated sensor chip
Sequence (Q13191 36-427): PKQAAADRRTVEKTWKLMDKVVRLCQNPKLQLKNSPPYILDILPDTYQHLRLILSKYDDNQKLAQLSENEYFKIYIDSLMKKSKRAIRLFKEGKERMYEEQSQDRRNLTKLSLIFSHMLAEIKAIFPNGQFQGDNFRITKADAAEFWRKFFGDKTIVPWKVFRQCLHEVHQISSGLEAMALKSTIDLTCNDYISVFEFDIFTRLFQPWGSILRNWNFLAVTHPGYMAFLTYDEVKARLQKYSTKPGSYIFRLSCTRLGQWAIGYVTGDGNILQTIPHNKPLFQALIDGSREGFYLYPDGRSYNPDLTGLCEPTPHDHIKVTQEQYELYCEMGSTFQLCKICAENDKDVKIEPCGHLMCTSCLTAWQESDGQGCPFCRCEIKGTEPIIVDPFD
TEST NAME: Surface Plasmon Resonance (SPR) assay, binding affinity and kinetics, CBL-B
COND: SPR at 10° C., biotinylated WT CBL-B (36-427) on streptavidin chip; geometric mean; read-out: CBL-B SPR Kd (nM) GMean
Satisfied if Kd is below 4 nM. Not satisfied if not; exact matches included in Not satisfied.

MOLECULE: Cn1cnnc1CC1(c2cccc(-c3n[nH]c4ccc(Cl)cc34)c2)COC1 [Example B7]
LABEL VALUE: Not satisfied

(Q) Consider CC(c1nc(C(F)(F)F)cc2c(-c3cccc(C4(Cc5nncn5C)COC4)c3)n[nH]c12)N1C[C@@H](F)[C@H](F)C1 (single isomer, unassigned) [Example C25] . Does its Kd lie strictly below 4 nM?
(A) Satisfied

(Q) Consider C[C@@H](c1nc(C(F)(F)F)cc2c(-c3cccc(C4(Cc5nncn5C)COC4)c3)n[nH]c12)N1CCCC1 (single isomer, unassigned) [Example D47] . Does its Kd lie strictly below 4 nM?
(A) Not satisfied

(Q) Consider C[C@@H](N[C@@H]1CCC(F)(F)C1)c1nc(C(F)(F)F)cc2c(-c3cccc(C4(Cc5nncn5C)COC4)c3)n[nH]c12 (single isomer, unassigned) [Example C18] . Does its Kd lie strictly below 4 nM?
(A) Satisfied

(Q) Consider Cn1cnnc1[C@@H](c1cccc(-c2n[nH]c3c(CN4C[C@@H](F)[C@H](F)C4)nc(C(F)(F)F)cc23)c1)C1CCC1 [Example C111] . Does its Kd lie strictly below 4 nM?
(A) Satisfied

(Q) Consider C[C@H](N[C@H]1C[C@@H](O)C1)c1nc(C(F)(F)F)cc2c(-c3cccc([C@H](c4nncn4C)C4CCC4)c3)n[nH]c12 (single isomer, unassigned) [Example C36] . Does its Kd lie strictly below 4 nM?
(A) Satisfied

(Q) Consider Cc1nccc2c(-c3cccc([C@H](c4nncn4C)C4CCC4)c3)n[nH]c12 [Example A7] . Does its Kd lie strictly below 4 nM?
(A) Not satisfied

(Q) Consider Cc1cc2c(-c3cccc([C@H](c4nncn4C)C4CCC4)c3)n[nH]c2cn1 [Example A6] . Does its Kd lie strictly below 4 nM?
(A) Not satisfied

(Q) Consider C[C@@H](N[C@H]1CCC(F)(F)C1)c1nc(C(F)(F)F)cc2c(-c3cccc(C4(Cc5nncn5C)COC4)c3)n[nH]c12 (single isomer, unassigned) [Example C13] . Does its Kd lie strictly below 4 nM?
(A) Satisfied

(Q) Consider Cn1cnnc1[C@@H](c1cccc(-c2n[nH]c3cnc(Cl)cc23)c1)C1CCC1 [Example A3] . Does its Kd lie strictly below 4 nM?
(A) Not satisfied

(Q) Consider Cn1cnnc1CC1(c2cccc(-c3n[nH]c4c(CN5CCC5)nc(C(F)(F)F)cc34)c2)COC1 [Example C61] . Does its Kd lie strictly below 4 nM?
(A) Not satisfied

(Q) Consider CC(C)NCc1nc(C(F)(F)F)cc2c(-c3cccc(C4(Cc5nncn5C)COC4)c3)n[nH]c12 [Example C53] . Does its Kd lie strictly below 4 nM?
(A) Not satisfied

(Q) Consider CCC(c1cccc(-c2n[nH]c3cnc(C(F)(F)F)cc23)c1)c1nncn1C (single isomer, unassigned) [Example A2] . Does its Kd lie strictly below 4 nM?
(A) Not satisfied

(Q) Consider CC(C)NC(C)c1nc(C(F)(F)F)cc2c(-c3cccc([C@H](c4nncn4C)C4CCC4)c3)n[nH]c12 (single isomer, unassigned) [Example C35] . Does its Kd lie strictly below 4 nM?
(A) Satisfied

Origin of measurements: patent US20260125375A1
